- MEASUREMENT_NOTES: Hemolysis assay
- Assay type: cell-based
- MEASUREMENT_CONTEXT: sheep; 2% (v/v) erythrocyte suspension, 0.05-1 mg/mL, 37 °C 30 min; read-out: hemolysis rate
Residues, ends and D or L forms follow the SMILES beside them.
READOUT_LABEL: hemolysis at 30 min

Form field hemolysis at 30 min, entry NCCCC[C@H](N)C(=O)N[C@@H](Cc1c[nH]c2ccccc12)C(=O)O [KW] (H-Lys-Trp-OH; N-terminus and C-terminus assumed) : < 5%

---

- MEASUREMENT_NOTES: Hemolysis assay
- Assay type: cell-based
- MEASUREMENT_CONTEXT: sheep; 2% (v/v) erythrocyte suspension, 0.05-1 mg/mL, 37 °C 30 min; read-out: hemolysis rate
No end group written: not given here.
READOUT_LABEL: hemolysis at 30 min

Form field hemolysis at 30 min, entry WQIWYK [WQIWYK] : < 5%

Where these numbers come from: paper PMC11990805
